Each recorded value in this set is attributed to the supplement of paper PMC7877785.

- Assay Details: self-splicing fitness, log relative to wild type (ln ratio); higher = more splicing; Tetrahymena group I intron in knt gene, E. coli kanamycin selection, DiMSum; sequences stand for … in CUCUCU…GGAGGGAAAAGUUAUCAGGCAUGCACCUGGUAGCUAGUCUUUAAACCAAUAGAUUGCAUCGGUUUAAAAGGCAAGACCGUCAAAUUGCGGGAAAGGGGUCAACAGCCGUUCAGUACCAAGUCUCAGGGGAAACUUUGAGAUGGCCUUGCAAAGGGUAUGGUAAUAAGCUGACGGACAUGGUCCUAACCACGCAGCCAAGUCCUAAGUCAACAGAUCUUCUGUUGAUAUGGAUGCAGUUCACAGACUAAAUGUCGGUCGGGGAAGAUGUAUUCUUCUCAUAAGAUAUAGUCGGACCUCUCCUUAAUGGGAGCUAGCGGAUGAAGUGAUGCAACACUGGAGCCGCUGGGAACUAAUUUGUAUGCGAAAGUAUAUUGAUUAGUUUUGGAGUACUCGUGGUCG;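 note: selection with 25 µg/mL kanamycin versus none on LB agar overnight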
- Cond: 30 °C
Everything with self-splicing fitness (ln) lower than -2 is rule not met; everything else, including exactly -2, is rule met.

Known results for sequences:
AGGUAGCAAUAUUACGCAAG | rule not met
CGGCAGCAAUAUUACGAACA | rule met
GAUUAGCAAUAUUACGAGGA | rule not met

Ask: Entry ACGUAGCAAUAUUACGUCGC : is its self-splicing fitness (ln) no less than -2?
Reply: rule not met

Ask: Entry CCUUAGCAAUAUUACGAUGA : is its self-splicing fitness (ln) no less than -2?
Reply: rule not met

Ask: Entry GCUCAGCAAUAUUACGAUCA : is its self-splicing fitness (ln) no less than -2?
Reply: rule met

Ask: Entry UAAGAGCAAUAUUACGCCCA : is its self-splicing fitness (ln) no less than -2?
Reply: rule not met

Ask: Entry CAGGAGCAAUAUUACGCACA : is its self-splicing fitness (ln) no less than -2?
Reply: rule not met
